For each entry below, report its IC50 value.
test system: 485176-168-R4-J1-PDC complex spheroid growth; assay: Anticancer human tumor 485176-168-R4-J1-PDC patient-derived pancreatic adenocarcinoma cell line growth inhibition [RAS]; details: curve of compound

Some compounds with known IC50 results, for comparison:
>  <COMPOUND>
C[C@@H](NC(=O)c1ncnc(N)c1Cl)c1ncc(C(=O)Nc2cc(C(F)(F)F)c(Cl)cn2)s1

>  <SYSTEM_UNDER_TEST>
485176-168-R4-J1-PDC complex spheroid growth

>  <IC50>
> 10 µM

$$$$
>  <COMPOUND>
Nc1ccn(C2OC(CO)C(O)C2(F)F)c(=O)n1 (configuration not stated)

>  <SYSTEM_UNDER_TEST>
485176-168-R4-J1-PDC complex spheroid growth

>  <IC50>
16.7 nM [middle of 4 runs]

$$$$
>  <COMPOUND>
CC(Nc1ccc2c(c1)OCCn1cc(N3C(=O)OCC3C(F)F)nc1-2)C(N)=O (configuration not stated)

>  <SYSTEM_UNDER_TEST>
485176-168-R4-J1-PDC complex spheroid growth

>  <IC50>
> 10 µM

$$$$
>  <COMPOUND>
CC1(O)CCCC1n1c(=O)c(C(F)F)cc2cnc(NC3CCN(S(C)(=O)=O)CC3)nc21 (configuration not stated)

>  <SYSTEM_UNDER_TEST>
485176-168-R4-J1-PDC complex spheroid growth

>  <IC50>
2.72 µM [middle of 4 runs]

$$$$
>  <COMPOUND>
O=C(c1ccc(F)c(F)c1Nc1ccc(I)cc1F)N1CC(O)([C@@H]2CCCCN2)C1

>  <SYSTEM_UNDER_TEST>
485176-168-R4-J1-PDC complex spheroid growth

>  <IC50>
206 nM [middle of 4 runs]

$$$$
>  <COMPOUND>
CC(=O)OC12COC1CC(O)C1(C)C(=O)C(O)C3=C(C)C(OC(=O)C(O)C(NC(=O)OC(C)(C)C)c4ccccc4)CC(O)(C(OC(=O)c4ccccc4)C21)C3(C)C (configuration not stated)

>  <SYSTEM_UNDER_TEST>
485176-168-R4-J1-PDC complex spheroid growth

>  <IC50>
< 0.0316 µM

$$$$
>  <COMPOUND>
C=CC(=O)N1CCN(c2nc(OCC3CCCN3C)nc3c(F)c(-c4nc(N)cc(C)c4C(F)(F)F)c(Cl)cc23)C(C)C1 (configuration not stated)

>  <SYSTEM_UNDER_TEST>
485176-168-R4-J1-PDC complex spheroid growth

>  <IC50>
> 1 µM

$$$$
>  <COMPOUND>
CCC(CC)c1cc(NC2CCC(N)C2)n2nccc2n1 (configuration not stated)

>  <SYSTEM_UNDER_TEST>
485176-168-R4-J1-PDC complex spheroid growth

>  <IC50>
1.58 µM [middle of 4 runs]

$$$$

Batch of 4 compounds: report IC50 for each.
1. CC(C)n1nc(-c2ccc3oc(N)nc3c2)c2c(N)ncnc21
2. CCN1CCN(Cc2ccc(Nc3ncc(F)c(-c4cc(F)c5nc(C)n(C(C)C)c5c4)n3)nc2)CC1
3. Cc1nc(N2CCC3(CC2)COC(C)C3N)c(CO)nc1Sc1ccnc(N)c1Cl (configuration not stated)
4. CC(C)NCC(C(=O)N1CCN(c2ncnc3c2C(C)CC3O)CC1)c1ccc(Cl)cc1 (configuration not stated)

-- reply
["31.2 nM [middle of 4 runs]", "> 1 µM", "> 10 µM", "2.32 µM [middle of 4 runs]"]

###

For each entry below, report its viability, T/C value.
system: 485176-168-R4-J1-PDC complex spheroid growth; test: Anticancer human tumor 485176-168-R4-J1-PDC cell line growth inhibition [RAS]; details: second compound 1 µM; first compound 1 µM; stronger effect = lower value;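 note: spheroids exposed to compounds for seven days before readout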;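 for viability, T/C: luminescence viability expressed relative to DMSO vehicle wells set as 100%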
Answers are plain numbers, in %.

Some compounds with known viability, T/C results, for comparison:
>  <COMPOUND>
CCC(CC)c1cc(NC2CCC(N)C2)n2nccc2n1 (centres undefined) + C#Cc1c(F)ccc2cc(O)cc(-c3ncc4c(N5CC6CCC(C5)N6)nc(OCC56CCCN5CC(F)C6)nc4c3F)c12

>  <EXPERIMENTAL_ENDPOINT>
viability, T/C

>  <UNIT_LABEL>
%

>  <READOUT_NUMBER>
83.1

$$$$
>  <COMPOUND>
CC(=O)OC12COC1CC(O)C1(C)C(=O)C(O)C3=C(C)C(OC(=O)C(O)C(NC(=O)OC(C)(C)C)c4ccccc4)CC(O)(C(OC(=O)c4ccccc4)C21)C3(C)C (centres undefined) + C#Cc1c(F)ccc2cc(O)cc(-c3ncc4c(N5CC6CCC(C5)N6)nc(OCC56CCCN5CC(F)C6)nc4c3F)c12

>  <EXPERIMENTAL_ENDPOINT>
viability, T/C

>  <UNIT_LABEL>
%

>  <READOUT_NUMBER>
11.8

$$$$
>  <COMPOUND>
CC(C)NCC(C(=O)N1CCN(c2ncnc3c2C(C)CC3O)CC1)c1ccc(Cl)cc1 (centres undefined) + C#Cc1c(F)ccc2cc(O)cc(-c3ncc4c(N5CC6CCC(C5)N6)nc(OCC56CCCN5CC(F)C6)nc4c3F)c12

>  <EXPERIMENTAL_ENDPOINT>
viability, T/C

>  <UNIT_LABEL>
%

>  <READOUT_NUMBER>
51.4

$$$$

Please turn your attention to the following entry.
-- ask Quickly give me recorded viability, T/C for CCN1CCN(Cc2ccc(Nc3ncc(F)c(-c4cc(F)c5nc(C)n(C(C)C)c5c4)n3)nc2)CC1 + C=CC(=O)N1CCN(c2nc(OCC3CCCN3C)nc3c(F)c(-c4nc(N)cc(C)c4C(F)(F)F)c(Cl)cc23)C(C)C1
-- reply 60

###

system: 485176-168-R4-J1-PDC complex spheroid growth; test: Anticancer human tumor 485176-168-R4-J1-PDC cell line growth inhibition [RAS]; settings: curve of first compound; second compound 0.316 µM;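 note: spheroids exposed to compounds for seven days before readout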
For each entry below, report its IC50 value.

Some molecules with known IC50 results, for comparison:
>  <MOLECULE>
Cc1nc(N2CCC3(CC2)COC(C)C3N)c(CO)nc1Sc1ccnc(N)c1Cl (centres undefined) + C#Cc1c(F)ccc2cc(O)cc(-c3ncc4c(N5CC6CCC(C5)N6)nc(OCC56CCCN5CC(F)C6)nc4c3F)c12

>  <EXPERIMENTAL_ENDPOINT>
IC50

>  <RESULT>
> 10 µM

$$$$
>  <MOLECULE>
CCN1CCN(Cc2ccc(Nc3ncc(F)c(-c4cc(F)c5nc(C)n(C(C)C)c5c4)n3)nc2)CC1 + C#Cc1c(F)ccc2cc(O)cc(-c3ncc4c(N5CC6CCC(C5)N6)nc(OCC56CCCN5CC(F)C6)nc4c3F)c12

>  <EXPERIMENTAL_ENDPOINT>
IC50

>  <RESULT>
> 1 µM

$$$$

Batch of 2 molecules: report IC50 for each.
1. CC(=O)OC12COC1CC(O)C1(C)C(=O)C(O)C3=C(C)C(OC(=O)C(O)C(NC(=O)OC(C)(C)C)c4ccccc4)CC(O)(C(OC(=O)c4ccccc4)C21)C3(C)C (centres undefined) + C#Cc1c(F)ccc2cc(O)cc(-c3ncc4c(N5CC6CCC(C5)N6)nc(OCC56CCCN5CC(F)C6)nc4c3F)c12
2. Cc1nc(N2CCC3(CC2)COC(C)C3N)c(CO)nc1Sc1ccnc(N)c1Cl (centres undefined) + C=CC(=O)N1CCN(c2nc(OCC3CCCN3C)nc3c(F)c(-c4nc(N)cc(C)c4C(F)(F)F)c(Cl)cc23)C(C)C1

-- reply
["< 0.0316 µM", "> 10 µM"]

###

system: 485176-168-R4-J1-PDC complex spheroid growth; test: Anticancer human tumor 485176-168-R4-J1-PDC cell line growth inhibition [RAS]; settings: curve of first compound; second compound 0.3 µM;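 note: spheroids exposed to compounds for seven days before readout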
EXPERIMENTAL_ENDPOINT: IC50

Some molecules with known IC50 results, for comparison:
>  <MOLECULE>
Cc1nc(N2CCC3(CC2)COC(C)C3N)c(CO)nc1Sc1ccnc(N)c1Cl (stereo unspecified) + CCn1c(-c2cccnc2C(C)OC)c2c3cc(ccc31)N1CCOC(CC(NC(=O)C(C(C)C)N(C)C(=O)C3(F)CCN(C(=O)C#CC(C)(C)N(C)C)CC3)C(=O)N3CCCC(N3)C(=O)OCC(C)(C)C2)C1

>  <RESULT>
> 10 µM

$$$$
>  <MOLECULE>
C=CC(=O)N1CCN(c2nc(OCC3CCCN3C)nc3c(F)c(-c4nc(N)cc(C)c4C(F)(F)F)c(Cl)cc23)C(C)C1 (stereo unspecified) + CCn1c(-c2cccnc2C(C)OC)c2c3cc(ccc31)N1CCOC(CC(NC(=O)C(C(C)C)N(C)C(=O)C3(F)CCN(C(=O)C#CC(C)(C)N(C)C)CC3)C(=O)N3CCCC(N3)C(=O)OCC(C)(C)C2)C1

>  <RESULT>
> 1 µM

$$$$
>  <MOLECULE>
C=CC(=O)N1CCN(c2nc(OCC3CCCN3C)nc3c(F)c(-c4nc(N)cc(C)c4C(F)(F)F)c(Cl)cc23)C(C)C1 (stereo unspecified) + CCn1c(-c2cc(N3CCN(C)CC3)cnc2C(C)OC)c2c3cc(ccc31)-c1csc(n1)CC(NC(=O)C1CC1C)C(=O)N1CCCC(N1)C(=O)OCC(C)(C)C2

>  <RESULT>
> 1 µM

$$$$
>  <MOLECULE>
C=CC(=O)Nc1cc(Nc2nccc(-c3cn(C)c4ccccc34)n2)c(OC)cc1N(C)CCN(C)C + CCn1c(-c2cc(N3CCN(C)CC3)cnc2C(C)OC)c2c3cc(ccc31)-c1csc(n1)CC(NC(=O)C1CC1C)C(=O)N1CCCC(N1)C(=O)OCC(C)(C)C2

>  <RESULT>
> 1 µM

$$$$
>  <MOLECULE>
NC1c2ccccc2OC12CCN(c1cnc3c(N4CCCc5ncccc54)n[nH]c3n1)CC2 (stereo unspecified) + CCn1c(-c2cccnc2C(C)OC)c2c3cc(ccc31)N1CCOC(CC(NC(=O)C(C(C)C)N(C)C(=O)C3(F)CCN(C(=O)C#CC(C)(C)N(C)C)CC3)C(=O)N3CCCC(N3)C(=O)OCC(C)(C)C2)C1

>  <RESULT>
> 10 µM

$$$$

Please turn your attention to the following entry.
-- ask Find IC50 for NC1c2ccccc2OC12CCN(c1cnc3c(N4CCCc5ncccc54)n[nH]c3n1)CC2 (stereo unspecified) + CCn1c(-c2cc(N3CCN(C)CC3)cnc2C(C)OC)c2c3cc(ccc31)-c1csc(n1)CC(NC(=O)C1CC1C)C(=O)N1CCCC(N1)C(=O)OCC(C)(C)C2 on 485176-168-R4-J1-PDC complex spheroid growth and write it down.
-- reply > 10 µM

The measurements presented in this section are drawn from PubChem BioAssay AID2060906.
